Test system: Escherichia coli TOP10
Test: shrunken log2 fold change of peptide-encoding DNA abundance (4.5 h post-induction vs induction); higher = less antimicrobial activity (less host growth inhibition)
Details: time post-induction: 4.5 h; library: site-saturation at positions 5, 18, 19, 20
TEST_READOUT: shrunken log2 fold change

Reported shrunken log2 fold change for `RRIRRRPPRLPRPRPRPVNWPRP` : what is it?
0.439

Field entry: `RRIRGRPPRLPRPRPRPGTNPRP`
0.133

* * *

Tested on: Escherichia coli TOP10
Test: shrunken log2 fold change of peptide-encoding DNA abundance (4.5 h post-induction vs induction); higher = less antimicrobial activity (less host growth inhibition)
Conditions: time post-induction: 4.5 h; library: site-saturation at positions 5, 18, 19, 20
Measured shrunken log2 fold change values are reported for all entries that follow.
Respond with the number and no other words.

Answered examples (2):
- SEQ_TEXT: "RRIRNRPPRLPRPRPRPFHFPRP"
  shrunken log2 fold change: -0.359
- SEQ_TEXT: "RRIRKRPPRLPRPRPRPQPVPRP"
  shrunken log2 fold change: 0.095

Shift focus to the following entry.
Which value of shrunken log2 fold change has been reported for `RRIRNRPPRLPRPRPRPMVTPRP` in the records?
-0.157

* * *

Test system: Escherichia coli TOP10
Assay: shrunken log2 fold change of peptide-encoding DNA abundance (4.5 h post-induction vs induction); higher = less antimicrobial activity (less host growth inhibition)
Details: time post-induction: 4.5 h; library: site-saturation at positions 5, 18, 19, 20
TEST_READOUT: shrunken log2 fold change

- SEQ_TEXT: "RRIRMRPPRLPRPRPRPTRDPRP"
  RESULT: 0.314
- SEQ_TEXT: "RRIRCRPPRLPRPRPRPVCWPRP"
  RESULT: 0.401
- SEQ_TEXT: "RRIRARPPRLPRPRPRPSYMPRP"
  RESULT: -0.761
- SEQ_TEXT: "RRIRCRPPRLPRPRPRPMFIPRP"
  RESULT: -1.16
- SEQ_TEXT: "RRIRKRPPRLPRPRPRPDILPRP"
  RESULT: 0.0039
- SEQ_TEXT: "RRIRWRPPRLPRPRPRPIWHPRP"
  RESULT: 0.126
- SEQ_TEXT: "RRIRKRPPRLPRPRPRPPQFPRP"
  RESULT: 0.127
- SEQ_TEXT: "RRIRLRPPRLPRPRPRPGIRPRP"
  RESULT: 0.0174

Can you look up the measured shrunken log2 fold change of `RRIRLRPPRLPRPRPRPHNNPRP` for me?
-0.847

Note, next up: `RRIRTRPPRLPRPRPRPTFFPRP`
-0.11

Try this sequence next: `RRIRQRPPRLPRPRPRPQHQPRP`
0.26

* * *

Tested on: Escherichia coli TOP10
Experiment: shrunken log2 fold change of peptide-encoding DNA abundance (4.5 h post-induction vs induction); higher = less antimicrobial activity (less host growth inhibition)
Details: time post-induction: 4.5 h; library: site-saturation at positions 5, 18, 19, 20
Assign a class from recorded shrunken log2 fold change; defined classes: low interval: < -0.2; middle interval: ≥ -0.2 and < -0.008; high interval: ≥ -0.008

- SEQ_TEXT: "RRIRDRPPRLPRPRPRPQFVPRP"
  CLASS_ASSIGNMENT: "middle interval"
- SEQ_TEXT: "RRIRDRPPRLPRPRPRPNHPPRP"
  CLASS_ASSIGNMENT: "low interval"
- SEQ_TEXT: "RRIRQRPPRLPRPRPRPPWQPRP"
  CLASS_ASSIGNMENT: "high interval"
- SEQ_TEXT: "RRIRLRPPRLPRPRPRPVQPPRP"
  CLASS_ASSIGNMENT: "high interval"
- SEQ_TEXT: "RRIRGRPPRLPRPRPRPIFNPRP"
  CLASS_ASSIGNMENT: "high interval"
- SEQ_TEXT: "RRIRARPPRLPRPRPRPSSKPRP"
  CLASS_ASSIGNMENT: "middle interval"

Turning now to a further record.
# bin label for `RRIRNRPPRLPRPRPRPTKAPRP`
high interval

* * *

Catalogue of sequences with associated shrunken log2 fold change
Tested on: Escherichia coli TOP10
Assay: shrunken log2 fold change of peptide-encoding DNA abundance (4.5 h post-induction vs induction); higher = less antimicrobial activity (less host growth inhibition)
Details: time post-induction: 4.5 h; library: site-saturation at positions 5, 18, 19, 20
Format: numeric value only, no unit, no commentary.

Fill in the recorded shrunken log2 fold change for this sequence, with Escherichia coli TOP10 as test system: `RRIRWRPPRLPRPRPRPWMVPRP`
0.0468

Also check `RRIRHRPPRLPRPRPRPTGYPRP`
-0.0185

Next entry: `RRIRQRPPRLPRPRPRPMSTPRP`
-0.0212

Also, `RRIRWRPPRLPRPRPRPHHPPRP` please.
0.0415

* * *

System: Escherichia coli TOP10
Assay: shrunken log2 fold change of peptide-encoding DNA abundance (4.5 h post-induction vs induction); higher = less antimicrobial activity (less host growth inhibition)
Settings: time post-induction: 4.5 h; library: site-saturation at positions 5, 18, 19, 20
Property: shrunken log2 fold change; scope: individual sequences
Would you mind answering with just the numeric figure?

Illustrative cases are given below, each with its answer.
- SEQ_TEXT: "RRIRDRPPRLPRPRPRPYIYPRP"
  TEST_READOUT: "shrunken log2 fold change"
  QUANTITATIVE_RESULT: -0.184
- SEQ_TEXT: "RRIRIRPPRLPRPRPRPNNCPRP"
  TEST_READOUT: "shrunken log2 fold change"
  QUANTITATIVE_RESULT: -0.0753
- SEQ_TEXT: "RRIRARPPRLPRPRPRPICHPRP"
  TEST_READOUT: "shrunken log2 fold change"
  QUANTITATIVE_RESULT: 0.0398

Entry `RRIRNRPPRLPRPRPRPITHPRP` has what shrunken log2 fold change?
-0.644

* * *

Tested on: Escherichia coli TOP10
Assay: shrunken log2 fold change of peptide-encoding DNA abundance (4.5 h post-induction vs induction); higher = less antimicrobial activity (less host growth inhibition)
Details: time post-induction: 4.5 h; library: site-saturation at positions 5, 18, 19, 20
So basically: shrunken log2 fold change at -0.04 or higher? That is yes (1). Lower than -0.04? That is no (0).

Field: example entries. Status: answers known.
- SEQ_TEXT: "RRIRSRPPRLPRPRPRPPLMPRP"
  SYSTEM_UNDER_TEST: "Escherichia coli TOP10"
  CLASS_ASSIGNMENT: "yes (1)"
- SEQ_TEXT: "RRIRVRPPRLPRPRPRPKSMPRP"
  SYSTEM_UNDER_TEST: "Escherichia coli TOP10"
  CLASS_ASSIGNMENT: "no (0)"
- SEQ_TEXT: "RRIRRRPPRLPRPRPRPIKMPRP"
  SYSTEM_UNDER_TEST: "Escherichia coli TOP10"
  CLASS_ASSIGNMENT: "no (0)"
- SEQ_TEXT: "RRIRHRPPRLPRPRPRPIPQPRP"
  SYSTEM_UNDER_TEST: "Escherichia coli TOP10"
  CLASS_ASSIGNMENT: "no (0)"
- SEQ_TEXT: "RRIRVRPPRLPRPRPRPDILPRP"
  SYSTEM_UNDER_TEST: "Escherichia coli TOP10"
  CLASS_ASSIGNMENT: "yes (1)"

Given the entry `RRIRERPPRLPRPRPRPARYPRP` , answer whether its shrunken log2 fold change meets or surpasses -0.04.
yes (1)

Now consider `RRIRFRPPRLPRPRPRPRYAPRP` .
yes (1)

Continue with `RRIRHRPPRLPRPRPRPSYDPRP`
yes (1)

* * *

Tested on: Escherichia coli TOP10;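 further: peptides expressed intracellularly from a pBAD plasmid library in pooled LB shake-flask culture, induced with 0.3% L-arabinose, DNA abundance read by NGS, three biological replicates, DESeq2 with apeglm shrinkage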
Assay: shrunken log2 fold change of peptide-encoding DNA abundance (4.5 h post-induction vs induction); higher = less antimicrobial activity (less host growth inhibition)
Conditions: time post-induction: 4.5 h; library: site-saturation at positions 5, 18, 19, 20
TEST_READOUT: shrunken log2 fold change
Respond with the number and no other words.

Here is how some sequences turned out for shrunken log2 fold change.
- SEQ_TEXT: "RRIRIRPPRLPRPRPRPVNEPRP"
  shrunken log2 fold change: -0.213
- SEQ_TEXT: "RRIRDRPPRLPRPRPRPETAPRP"
  shrunken log2 fold change: 1.15
- SEQ_TEXT: "RRIRVRPPRLPRPRPRPQIRPRP"
  shrunken log2 fold change: -0.305
- SEQ_TEXT: "RRIRQRPPRLPRPRPRPEDYPRP"
  shrunken log2 fold change: -0.0734
- SEQ_TEXT: "RRIRRRPPRLPRPRPRPHMYPRP"
  shrunken log2 fold change: -0.272
- SEQ_TEXT: "RRIRIRPPRLPRPRPRPDHDPRP"
  shrunken log2 fold change: -0.0366

What value of measured shrunken log2 fold change is listed for `RRIRRRPPRLPRPRPRPLTVPRP` ?
0.0344

Subsequent entry: `RRIRVRPPRLPRPRPRPTESPRP`
-0.00266

And what about the sequence `RRIRPRPPRLPRPRPRPMLFPRP` ?
-0.0744

Now this one: `RRIRLRPPRLPRPRPRPFTGPRP`
-0.204

What do you get for `RRIRVRPPRLPRPRPRPRTIPRP` ?
-0.0961

// query: `RRIRFRPPRLPRPRPRPRYTPRP`
-0.15

Record: `RRIRDRPPRLPRPRPRPRKAPRP`
-0.0143
